Biological target: human STING (Homo sapiens)
Sequence (Q86WV6 whole entry H232R): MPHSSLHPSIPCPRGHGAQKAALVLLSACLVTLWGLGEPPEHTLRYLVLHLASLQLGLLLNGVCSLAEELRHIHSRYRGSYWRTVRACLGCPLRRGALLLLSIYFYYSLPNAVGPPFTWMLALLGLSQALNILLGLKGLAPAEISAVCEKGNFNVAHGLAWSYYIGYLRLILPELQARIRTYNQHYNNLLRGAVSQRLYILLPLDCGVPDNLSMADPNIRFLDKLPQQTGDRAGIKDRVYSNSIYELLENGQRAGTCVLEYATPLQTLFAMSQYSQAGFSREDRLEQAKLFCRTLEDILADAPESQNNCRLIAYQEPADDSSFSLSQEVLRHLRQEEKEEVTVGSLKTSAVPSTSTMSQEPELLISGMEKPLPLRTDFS
Test: Fluorescence Thermal Shift assay (hSTING FTS binding assay)
Conditions: STING 0.1 mg/ml, 20 min preincubation, SyproOrange
measurement.type: hSTING FTS binding assay (ΔT C.°)

1. Cc1cc(CN(Cc2cn(C)c3ccccc3c2=O)[C@H]2CCCN(c3cccnc3)C2)ccn1: ++ (ΔTm>10° C.)
2. Cc1cc(CN(Cc2cn(C)c3ccccc3c2=O)[C@H]2CCCN(c3cccnc3[N+](=O)[O-])C2)ccn1: + (ΔTm<10° C.)
3. Cc1cc(CN(Cc2cn(C)c3ccccc3c2=O)[C@H]2C[C@@H](C)CN(c3cccnc3)C2)ccn1: + (ΔTm<10° C.)
4. Cc1cc(CN(Cc2cn(C)c3ccccc3c2=O)[C@H]2C[C@H](F)CN(c3cccnc3)C2)ccn1: ++ (ΔTm>10° C.)
5. COc1cc(CN(Cc2c[nH]c3ccccc3c2=O)[C@H]2CCCN(c3cccnc3)C2)ccn1: ++ (ΔTm>10° C.)
6. Cc1cc(CN(Cc2cn(C)c3ccccc3c2=O)[C@H]2CCCN(c3ccc(F)nc3)C2)ccn1: + (ΔTm<10° C.)
7. Cc1cc(CN(Cc2cn(C)c3ccccc3c2=O)[C@H]2CCCN(c3cc[nH]c(=O)c3)C2)ccn1: + (ΔTm<10° C.)
8. Cc1cc(CN(Cc2cn(C)c3ccccc3c2=O)[C@H]2CCCN(c3nnc(C)o3)C2)ccn1: + (ΔTm<10° C.)

----------
Molecular target: human STING (Homo sapiens)
Test: Fluorescence Thermal Shift assay (hSTING FTS binding assay)
Details: STING 0.1 mg/ml, 20 min preincubation, SyproOrange
measurement.type: hSTING FTS binding assay (ΔT C.°)

1) COc1cc(CN(Cc2cn(C3CC3)c3cc(F)c(F)cc3c2=O)[C@H]2CCCN(c3cccnc3)C2)ccn1: ++ (ΔTm>10° C.)
2) COc1cc(CN(Cc2cn(C)c3ccccc3c2=O)C2CCCN(c3cnccn3)C2)ccn1 (stereo not drawn): + (ΔTm<10° C.)
3) Cc1ccc(N2CCC[C@H](N(Cc3ccnc(C)c3)Cc3cn(C4CC4)c4cc(N5CCNC6(CC6)C5)c(F)cc4c3=O)C2)cn1: ++ (ΔTm>10° C.)
4) Cc1ccc(N2CCC[C@H](N(Cc3ccnc(C)c3)Cc3cn(C4CC4)c4nc(Cl)c(F)cc4c3=O)C2)cn1: ++ (ΔTm>10° C.)
5) Cc1ccc(N2CCC[C@H](N(Cc3ccnc(C)c3)Cc3cn(CC(=O)O)c4ccccc4c3=O)C2)cn1: ++ (ΔTm>10° C.)
6) Cc1cc(CN(Cc2cn(C)c3ccccc3c2=O)[C@H]2CCCN(c3ccc([N+](=O)[O-])nc3)C2)ccn1: + (ΔTm<10° C.)
